This collection of values is drawn from ChEMBL document CHEMBL1961873.

# key: entry, value: inhibition
- system_under_test: Dual specificity mitogen-activated protein kinase kinase 1 (Homo sapiens);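 further: reported value is a mean percent inhibition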
- condition_parameters: at 0.1 µM
endpoint: inhibition (%)

{"structure_as_smiles": "Nc1nccc(-c2c(-c3ccc(F)cc3)nn3cc(C(F)(F)F)ccc23)n1", "system_under_test": "Dual specificity mitogen-activated protein kinase kinase 1 (Homo sapiens)", "endpoint_value": 1.8}
{"structure_as_smiles": "CS(=O)(=O)CCNCc1nc(-c2ccc3ncnc(Nc4ccc(OCc5cccc(C(F)(F)F)c5)cc4)c3c2)cs1", "system_under_test": "Dual specificity mitogen-activated protein kinase kinase 1 (Homo sapiens)", "endpoint_value": 1.13}
{"structure_as_smiles": "ON=C1CCc2cc(-c3nc(C4CCNCC4)[nH]c3-c3ccncc3)ccc21", "system_under_test": "Dual specificity mitogen-activated protein kinase kinase 1 (Homo sapiens)", "endpoint_value": 0.2}
{"structure_as_smiles": "Oc1cccc(-c2nc(-c3ccccc3)[nH]c2-c2ccncc2)c1", "system_under_test": "Dual specificity mitogen-activated protein kinase kinase 1 (Homo sapiens)", "endpoint_value": 5.08}
{"structure_as_smiles": "N#Cc1cccc(Nc2nccc(-c3cnn4ncccc34)n2)c1", "system_under_test": "Dual specificity mitogen-activated protein kinase kinase 1 (Homo sapiens)", "endpoint_value": 19.5}
{"structure_as_smiles": "CN(C)c1cc2c(Nc3ccc4c(cnn4Cc4ccccc4)c3)ncnc2cn1", "system_under_test": "Dual specificity mitogen-activated protein kinase kinase 1 (Homo sapiens)", "endpoint_value": 3.44}
{"structure_as_smiles": "Cc1nc(-c2ccccc2)n2nc(NCCCN3CCOCC3)ncc12", "system_under_test": "Dual specificity mitogen-activated protein kinase kinase 1 (Homo sapiens)", "endpoint_value": 2.79}
{"structure_as_smiles": "C[C@@H](Oc1cc(-n2cnc3ccc(OC[C@@H](O)CO)cc32)sc1C(N)=O)c1ccccc1Cl", "system_under_test": "Dual specificity mitogen-activated protein kinase kinase 1 (Homo sapiens)", "endpoint_value": -0.54}
{"structure_as_smiles": "COC(=O)c1ccc2c(c1)C(=Cc1cc(Br)c(O)c(Br)c1)C(=O)N2", "system_under_test": "Dual specificity mitogen-activated protein kinase kinase 1 (Homo sapiens)", "endpoint_value": 3.31}
{"structure_as_smiles": "c1ccc(Nc2ncc(-c3ccccc3)o2)cc1", "system_under_test": "Dual specificity mitogen-activated protein kinase kinase 1 (Homo sapiens)", "endpoint_value": 5.07}

----------
# key: entry, value: inhibition
- system_under_test: Tyrosine-protein kinase HCK (Homo sapiens);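 further: values are averaged percent inhibition of HCK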
- condition_parameters: at 1 µM

{"molecule": "Cc1ccc2c(-c3ccnc(Nc4cccc(C(F)(F)F)c4)n3)c(-c3ccccc3)nn2n1", "measurement_unit": "%", "inhibition": 45.1}
{"molecule": "NS(=O)(=O)c1ccc(N/N=C2\\C(=O)Nc3ccc(Cl)cc32)cc1", "measurement_unit": "%", "inhibition": 11.4}
{"molecule": "COc1ccc2ncnc(Nc3ccc(OCc4ccccc4)cc3)c2c1", "measurement_unit": "%", "inhibition": 8.33}
{"molecule": "O=C(Nc1ccc(Oc2ccc3[nH]c(NC(=O)c4ccco4)nc3c2)cc1)Nc1cc(C(F)(F)F)ccc1F", "measurement_unit": "%", "inhibition": 47.3}
{"molecule": "ON=C1CCc2cc(-c3nc(C4CCNCC4)[nH]c3-c3ccncc3)ccc21", "measurement_unit": "%", "inhibition": 4.24}
{"molecule": "COc1cc2ncnc(Nc3ccc(C)c(O)c3)c2cc1OC", "measurement_unit": "%", "inhibition": 75.1}
{"molecule": "COC(=O)Nc1nc2cc(Oc3ccc(NC(=O)Nc4cccc(Br)c4)cc3)ccc2[nH]1", "measurement_unit": "%", "inhibition": 6.79}
{"molecule": "Nc1nccc(C#Cc2cncnc2Nc2ccc(OCc3cccc(F)c3)c(Cl)c2)n1", "measurement_unit": "%", "inhibition": 10.2}
{"molecule": "Cc1nc(-c2ccccc2)n2nc(NCCCN3CCOCC3)ncc12", "measurement_unit": "%", "inhibition": 4.67}
{"molecule": "Cc1ccc(Nc2ccnc(Nc3cccc(C(N)=O)c3)n2)cc1O", "measurement_unit": "%", "inhibition": 83.5}
{"molecule": "N#Cc1c(NC(=O)c2ccccc2F)sc2c1CCCC2", "measurement_unit": "%", "inhibition": 0.95}
{"molecule": "Nc1nccc(-c2c(-c3ccc(F)cc3)ncn2CCCN2CCOCC2)n1", "measurement_unit": "%", "inhibition": 6.92}
{"molecule": "CC(C)c1ccc2c(c1)NC(=O)/C2=N/Nc1ccc(S(N)(=O)=O)cc1", "measurement_unit": "%", "inhibition": 11}
{"molecule": "CS(=O)(=O)CCNCc1nc(-c2ccc3ncnc(Nc4ccc(OCc5cccc(C(F)(F)F)c5)cc4)c3c2)cs1", "measurement_unit": "%", "inhibition": 5.68}
{"molecule": "Cc1ccc2c(c1)/C(=N/Nc1ccc(S(N)(=O)=O)cc1)C(=O)N2", "measurement_unit": "%", "inhibition": 6.19}
{"molecule": "CCn1c(-c2nonc2N)nc2ccc(F)cc21", "measurement_unit": "%", "inhibition": 7.63}
{"molecule": "NC(=O)c1cccc(Nc2nccc(Nc3cccc(F)c3)n2)c1", "measurement_unit": "%", "inhibition": 30.8}
{"molecule": "CCCN1CCCC(c2ccc(Nc3nc(Nc4cc(F)ccc4C(N)=O)c4cc[nH]c4n3)c(OC)c2)C1 (stereo not given)", "measurement_unit": "%", "inhibition": 11.9}
{"molecule": "Oc1cccc(-c2nc(-c3ccccc3)[nH]c2-c2ccncc2)c1", "measurement_unit": "%", "inhibition": 51.2}
{"molecule": "Nc1nccc(-c2c(-c3ccc(F)cc3)nn3cc(C(F)(F)F)ccc23)n1", "measurement_unit": "%", "inhibition": -0.25}

----------
# key: entry, value: inhibition
- system_under_test: Serine/threonine-protein kinase pim-2 (Homo sapiens) (UniProt Q9P1W9);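 further: each value is a mean of the inhibition measurements against the kinase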
- Sequence (Q9P1W9 whole entry, looked up): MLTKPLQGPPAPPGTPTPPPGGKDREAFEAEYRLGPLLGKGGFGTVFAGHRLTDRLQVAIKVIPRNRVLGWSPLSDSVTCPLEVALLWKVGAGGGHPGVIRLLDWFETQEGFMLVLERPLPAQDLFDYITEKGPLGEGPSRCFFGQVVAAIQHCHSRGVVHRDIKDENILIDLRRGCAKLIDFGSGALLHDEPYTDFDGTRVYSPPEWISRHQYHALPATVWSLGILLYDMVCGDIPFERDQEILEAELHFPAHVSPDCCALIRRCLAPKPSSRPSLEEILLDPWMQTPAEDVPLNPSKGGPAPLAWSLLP
- condition_parameters: at 1 µM

{"structure_as_smiles": "CN(C)CCCn1c(-c2nonc2N)nc2cnccc21", "inhibition / %": 0.24}
{"structure_as_smiles": "CN(C)c1cc2c(Nc3ccc4c(cnn4Cc4ccccc4)c3)ncnc2cn1", "inhibition / %": 0.31}
{"structure_as_smiles": "NS(=O)(=O)c1cccc(Nc2cc(-c3ccc(F)cc3)n[nH]2)c1", "inhibition / %": 1.85}
{"structure_as_smiles": "Cc1ccc(C(=O)NC2CC2)cc1-c1ccc2[nH]ncc2c1", "inhibition / %": 0.98}
{"structure_as_smiles": "c1ccc(Nc2ncc(-c3ccccc3)o2)cc1", "inhibition / %": -0.45}
{"structure_as_smiles": "OCc1ccc(-c2nc(-c3ccccn3)c(-c3ccc4c(c3)OCO4)[nH]2)cc1", "inhibition / %": 1.41}
{"structure_as_smiles": "CN(C)C(=O)O[C@@H]1CN[C@@H](C#Cc2cc3ncnc(Nc4ccc(OCc5cccc(F)c5)c(Cl)c4)c3s2)C1", "inhibition / %": 0.58}
{"structure_as_smiles": "Cc1ccc2c(-c3ccnc(Nc4cccc(C(F)(F)F)c4)n3)c(-c3ccccc3)nn2n1", "inhibition / %": -0.7}
{"structure_as_smiles": "N#Cc1cccc(Nc2nccc(-c3cnn4ncccc34)n2)c1", "inhibition / %": 7.85}
{"structure_as_smiles": "ON=C1CCc2cc(-c3nc(C4CCNCC4)[nH]c3-c3ccncc3)ccc21", "inhibition / %": 2.02}
{"structure_as_smiles": "COC(=O)c1cncc(/C=C/c2c(C)cc(O)cc2C)c1", "inhibition / %": 0.09}
{"structure_as_smiles": "O=C1Nc2ccccc2/C1=C/Nc1ccc2[nH]c(=O)[nH]c2c1", "inhibition / %": -0.46}

----------
# key: entry, value: inhibition
- system_under_test: Proto-oncogene tyrosine-protein kinase ROS (Homo sapiens) (UniProt P08922)
- Sequence (P08922 whole entry): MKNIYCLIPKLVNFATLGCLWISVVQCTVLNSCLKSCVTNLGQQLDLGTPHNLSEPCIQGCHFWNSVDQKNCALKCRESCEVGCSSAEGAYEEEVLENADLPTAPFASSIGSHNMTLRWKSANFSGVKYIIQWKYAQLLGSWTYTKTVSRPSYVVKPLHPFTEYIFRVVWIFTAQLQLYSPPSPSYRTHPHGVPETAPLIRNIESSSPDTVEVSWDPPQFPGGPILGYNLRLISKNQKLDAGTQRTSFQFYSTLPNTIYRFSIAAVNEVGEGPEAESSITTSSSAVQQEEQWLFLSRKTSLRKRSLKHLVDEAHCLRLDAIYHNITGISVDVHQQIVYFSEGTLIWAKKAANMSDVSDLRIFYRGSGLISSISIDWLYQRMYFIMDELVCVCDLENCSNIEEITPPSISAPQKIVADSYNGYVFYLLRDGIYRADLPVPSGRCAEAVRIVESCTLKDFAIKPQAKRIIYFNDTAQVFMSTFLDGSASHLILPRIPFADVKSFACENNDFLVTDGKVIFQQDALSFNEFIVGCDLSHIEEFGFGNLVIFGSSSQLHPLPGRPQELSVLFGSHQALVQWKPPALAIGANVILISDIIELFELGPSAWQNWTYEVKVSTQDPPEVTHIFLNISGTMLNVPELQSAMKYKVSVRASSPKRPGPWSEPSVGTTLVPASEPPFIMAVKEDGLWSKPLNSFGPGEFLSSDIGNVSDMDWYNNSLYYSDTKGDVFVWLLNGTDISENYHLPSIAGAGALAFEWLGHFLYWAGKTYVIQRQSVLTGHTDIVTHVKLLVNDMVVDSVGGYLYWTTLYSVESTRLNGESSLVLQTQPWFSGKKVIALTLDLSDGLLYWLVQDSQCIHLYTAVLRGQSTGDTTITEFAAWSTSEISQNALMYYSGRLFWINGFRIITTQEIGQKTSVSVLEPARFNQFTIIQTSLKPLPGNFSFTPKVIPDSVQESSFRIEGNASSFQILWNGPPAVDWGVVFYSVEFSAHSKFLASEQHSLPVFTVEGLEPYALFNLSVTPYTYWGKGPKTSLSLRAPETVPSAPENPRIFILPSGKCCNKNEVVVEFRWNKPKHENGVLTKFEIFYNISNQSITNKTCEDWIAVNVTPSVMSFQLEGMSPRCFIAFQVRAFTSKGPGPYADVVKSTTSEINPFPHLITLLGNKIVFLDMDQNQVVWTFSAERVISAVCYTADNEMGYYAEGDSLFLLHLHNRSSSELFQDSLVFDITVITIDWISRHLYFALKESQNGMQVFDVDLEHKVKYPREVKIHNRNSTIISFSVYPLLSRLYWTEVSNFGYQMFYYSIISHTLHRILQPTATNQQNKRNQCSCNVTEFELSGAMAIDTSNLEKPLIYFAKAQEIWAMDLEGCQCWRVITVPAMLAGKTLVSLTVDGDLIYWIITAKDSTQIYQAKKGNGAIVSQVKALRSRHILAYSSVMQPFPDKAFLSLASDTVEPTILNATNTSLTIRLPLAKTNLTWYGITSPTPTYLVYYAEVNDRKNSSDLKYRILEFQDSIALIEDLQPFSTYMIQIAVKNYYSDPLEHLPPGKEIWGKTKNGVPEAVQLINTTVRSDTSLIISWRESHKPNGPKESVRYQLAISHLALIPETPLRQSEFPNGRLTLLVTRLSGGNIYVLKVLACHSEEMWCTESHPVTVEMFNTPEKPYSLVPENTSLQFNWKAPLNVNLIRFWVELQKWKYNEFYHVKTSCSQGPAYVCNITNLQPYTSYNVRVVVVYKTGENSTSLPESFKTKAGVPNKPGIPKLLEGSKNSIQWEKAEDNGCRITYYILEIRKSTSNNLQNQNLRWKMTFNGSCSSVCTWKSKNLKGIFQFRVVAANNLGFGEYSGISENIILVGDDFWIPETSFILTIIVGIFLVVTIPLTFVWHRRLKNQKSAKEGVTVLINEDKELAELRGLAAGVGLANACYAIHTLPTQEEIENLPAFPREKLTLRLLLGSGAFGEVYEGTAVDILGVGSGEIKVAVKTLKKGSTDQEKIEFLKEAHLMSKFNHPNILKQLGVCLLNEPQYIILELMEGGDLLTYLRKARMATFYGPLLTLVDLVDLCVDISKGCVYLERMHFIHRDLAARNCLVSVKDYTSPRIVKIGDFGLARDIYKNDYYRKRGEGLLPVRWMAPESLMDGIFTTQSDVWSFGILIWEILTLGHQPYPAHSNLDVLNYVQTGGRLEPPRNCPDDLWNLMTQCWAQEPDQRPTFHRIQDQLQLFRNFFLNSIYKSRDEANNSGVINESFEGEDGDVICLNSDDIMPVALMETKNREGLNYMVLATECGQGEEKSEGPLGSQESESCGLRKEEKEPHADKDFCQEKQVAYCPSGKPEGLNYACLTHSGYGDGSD
- condition_parameters: at 0.1 µM
- Description: GSK_PKIS: ROS mean inhibition at 0.1 uM [Nanosyn]

{"compound": "O=C1Nc2ccccc2/C1=C/Nc1ccc2[nH]c(=O)[nH]c2c1", "system_under_test": "Proto-oncogene tyrosine-protein kinase ROS (Homo sapiens) (UniProt P08922)", "inhibition (%)": 3.89}
{"compound": "CN(C)CCCn1c(-c2nonc2N)nc2cnccc21", "system_under_test": "Proto-oncogene tyrosine-protein kinase ROS (Homo sapiens) (UniProt P08922)", "inhibition (%)": 5.53}
{"compound": "Nc1ccc(C#Cc2cncnc2Nc2ccc(OCc3cccc(F)c3)c(Cl)c2)cc1", "system_under_test": "Proto-oncogene tyrosine-protein kinase ROS (Homo sapiens) (UniProt P08922)", "inhibition (%)": 1.61}
{"compound": "NS(=O)(=O)c1ccc(NC=C2C(=O)Nc3ccc4ncsc4c32)cc1", "system_under_test": "Proto-oncogene tyrosine-protein kinase ROS (Homo sapiens) (UniProt P08922)", "inhibition (%)": 17.3}
{"compound": "CCCN1CCCC(c2ccc(Nc3nc(Nc4cc(F)ccc4C(N)=O)c4cc[nH]c4n3)c(OC)c2)C1 (configuration not stated)", "system_under_test": "Proto-oncogene tyrosine-protein kinase ROS (Homo sapiens) (UniProt P08922)", "inhibition (%)": 63.8}
{"compound": "Nc1nccc(-c2c(-c3ccc(F)cc3)ncn2CCCN2CCOCC2)n1", "system_under_test": "Proto-oncogene tyrosine-protein kinase ROS (Homo sapiens) (UniProt P08922)", "inhibition (%)": 5.06}
{"compound": "CCn1c(-c2nonc2N)nc2ccc(F)cc21", "system_under_test": "Proto-oncogene tyrosine-protein kinase ROS (Homo sapiens) (UniProt P08922)", "inhibition (%)": 5.7}
{"compound": "N#Cc1cccc(Nc2nccc(-c3cnn4ncccc34)n2)c1", "system_under_test": "Proto-oncogene tyrosine-protein kinase ROS (Homo sapiens) (UniProt P08922)", "inhibition (%)": 32.1}
{"compound": "OCc1ccc(-c2nc(-c3ccccn3)c(-c3ccc4c(c3)OCO4)[nH]2)cc1", "system_under_test": "Proto-oncogene tyrosine-protein kinase ROS (Homo sapiens) (UniProt P08922)", "inhibition (%)": 6.84}
{"compound": "Cc1cc(-c2ccccn2)cc(C)c1/C=C/c1cncc(-c2nn[nH]n2)c1", "system_under_test": "Proto-oncogene tyrosine-protein kinase ROS (Homo sapiens) (UniProt P08922)", "inhibition (%)": 9.51}
{"compound": "ON=C1CCc2cc(-c3nc(C4CCNCC4)[nH]c3-c3ccncc3)ccc21", "system_under_test": "Proto-oncogene tyrosine-protein kinase ROS (Homo sapiens) (UniProt P08922)", "inhibition (%)": 1.07}
{"compound": "CCOc1nccc2c1nc(-c1nonc1N)n2CC", "system_under_test": "Proto-oncogene tyrosine-protein kinase ROS (Homo sapiens) (UniProt P08922)", "inhibition (%)": 5.15}
